Test: Selectivity index, ratio of CC50 for cytotoxicity against human MT4 cells to EC50 for antiviral activity against HIV1 IIIB infected in human MT4 cells
Format: toxicity, cell-based
Settings: read-out: Ratio CC50/EC50
QUANTITY: selectivity ratio
Numbers only.

Known results for compounds:
COc1ccc(-n2c(SCc3cccnc3)nnc2[C@H](Cc2ccccc2)NC(=O)Cc2c(C)[nH]c3ccccc23)cc1 8
COc1ccc(N(C)C(=O)[C@H](Cc2cc(F)cc(F)c2)NC(=O)CN(Cc2ccc(F)cc2)C(=O)Cn2nc(C(F)(F)F)c3ccccc32)cc1 42
COc1ccc(N(C)C(=O)[C@H](Cc2ccccc2)NC(=O)Cn2ccc(NC(=O)c3ccc(C#N)cc3)cc2=O)cc1 8.18
COc1ccc(N(C)C(=O)[C@H](Cc2cc(F)cc(F)c2)NC(=O)CN2CCN(S(=O)(=O)c3ccccc3[N+](=O)[O-])CC2)cc1 33.4

# evaluate next
Request the reported selectivity ratio associated with "COc1ccc(-n2c(SCc3ccc(S(C)(=O)=O)cc3)nnc2[C@H](Cc2ccccc2)NC(=O)Cc2c(C)[nH]c3ccccc23)cc1"
71

====

Test system: Human immunodeficiency virus 1
Test: Antiviral activity against HIV1 IIIB infected in human MT4 cells assessed as reduction in virus induced cytopathic effect measured after 5 days by MTT assay
Type: functional, organism-based
Settings: Human immunodeficiency virus 1, IIIB, MT4, 120 h
QUANTITY: EC50 (µM)
Give bare numbers, in µM.

Known results for compounds:
COc1ccc(-n2c(SCCS(C)(=O)=O)nnc2[C@H](Cc2ccccc2)NC(=O)Cc2c(C)[nH]c3ccccc23)cc1 3.87
COc1ccc(N(C)C(=O)[C@H](Cc2cc(F)cc(F)c2)NC(=O)CN(Cc2ccc(C#N)cc2)C(=O)Cc2ccc(B3OC(C)(C)C(C)(C)O3)cc2)cc1 17.7

I have 2 compounds here; please give me EC50 for each one.
1. COc1ccc(-n2c(SCc3cccnc3)nnc2[C@H](Cc2ccccc2)NC(=O)Cc2c(C)[nH]c3ccccc23)cc1
2. COc1ccc(N(C)C(=O)[C@H](Cc2cc(F)cc(F)c2)NC(=O)CN(Cc2ccc(C#N)cc2)C(=O)Cc2c[nH]c3ccc(Br)cc23)cc1

2.99
5.61

====

For each of the compounds below, state its Ratio EC50.
Test: Selectivity ratio of EC50 for antiviral activity against HIV1 IIIB infected in human MT4 cells to EC50 for antiviral activity against HIV2 ROD infected in human MT4 cells
Type: toxicity, cell-based
Numbers only.

Known results for compounds:
COC(=O)C(C)(C)Sc1nnc([C@H](Cc2ccccc2)NC(=O)Cc2c(C)[nH]c3ccccc23)n1-c1ccc(OC)cc1 0.13
COc1ccc(N(C)C(=O)[C@H](Cc2cc(F)cc(F)c2)NC(=O)CN(Cc2ccc(C#N)cc2)C(=O)Cc2c[nH]c3ccc(F)cc23)cc1 2.97
COC(=O)CSc1nnc([C@H](Cc2ccccc2)NC(=O)Cc2c(C)[nH]c3ccccc23)n1-c1ccc(OC)cc1 0.46
COc1ccc(N(C)C(=O)[C@H](Cc2cc(F)cc(F)c2)NC(=O)CN2CCN(S(=O)(=O)c3ccccc3)CC2)cc1 2
COc1ccc(N(C)C(=O)[C@H](Cc2cc(F)cc(F)c2)NC(=O)CN2CCN(S(=O)(=O)c3ccc(NC(C)=O)cc3)CC2)cc1 7
COc1ccc(C(=O)Nc2ccn(CC(=O)N[C@@H](Cc3ccccc3)C(=O)N(C)c3ccc(OC)cc3)c(=O)c2)cc1 2.78

# evaluate next
Request the reported Ratio EC50 associated with "COc1ccc(N(C)C(=O)[C@H](Cc2cc(F)cc(F)c2)NC(=O)CN2CCN(S(=O)(=O)c3ccc([N+](=O)[O-])cc3)CC2)cc1"
2.1
